# maps each entry to its pIC50
biological target: FIPV-3CL^pro (Feline coronavirus (strain FIPV WSU-79/1146) (FCoV)); experiment: biochemical
Sequence (Q98VG9 2904-3205 limits assumed): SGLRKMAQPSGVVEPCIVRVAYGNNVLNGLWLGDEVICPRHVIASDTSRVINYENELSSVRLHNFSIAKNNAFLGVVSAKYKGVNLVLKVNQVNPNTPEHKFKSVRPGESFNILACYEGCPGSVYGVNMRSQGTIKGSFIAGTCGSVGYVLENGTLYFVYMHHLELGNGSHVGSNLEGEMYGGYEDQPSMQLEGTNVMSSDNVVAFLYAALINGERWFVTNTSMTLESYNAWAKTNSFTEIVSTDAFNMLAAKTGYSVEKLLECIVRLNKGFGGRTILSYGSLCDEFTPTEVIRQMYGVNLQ
pIC50: −log10 of the molar value.

| compound | pIC50 |
| --- | --- |
| CC(C)(C)NC(=O)C(c1cccnc1)N(C(=O)c1c[nH]cn1)c1ccc(C2CCCC2)cc1 (stereo not drawn) | 4.73 |
| CC(C)(C)c1ccc(N(C(=O)c2c[nH]cn2)C(C(=O)NC2CCCC2)c2cccnc2)cc1 (stereo not drawn) | 5.16 |
| CC(C)(C)CNC(=O)C(c1cccnc1)N(C(=O)c1c[nH]cn1)c1ccc(C(C)(C)C)cc1 (stereo not drawn) | 4.90 |

Taken from patent US9975885B2.
